# assay method text: Phase solubility of PM in in-situ basic salt-forming agents (arginine, meglumine)
# Assay type: physicochemical
# measurement setup: 3‰ (M/V) arginine solution in UP water, aqueous with cosolvent or surfactant or cyclodextrin, thermodynamic from solid; Arginine 3‰, API saturated; read-out: Drug concentration
Where a name gives a salt, the structure may show the parent alone.
readout kind: solubility thermodynamic (mg/mL)
Report as a plain number; the unit mg/mL is understood.

Q: Consider the compound CN(Cc1nc2c(N3CCOCC3)nc(-c3ccc(N)cc3)nc2n1C)c1ncc(C(=O)NO)cn1 [API, purinostat mesylate] and give its measured solubility thermodynamic.
Result: 0.11

###

# assay method text: Phase solubility of PM in in-situ basic salt-forming agents (arginine, meglumine)
# Assay type: physicochemical
# measurement setup: 10‰ (M/V) arginine solution in UP water, aqueous with cosolvent or surfactant or cyclodextrin, thermodynamic from solid; Arginine 10‰, API saturated; read-out: Drug concentration
# Experimental: According to the pH guidance standard for injection, the optimal pH range for injection was 4-9. Then, excessive PM raw materials were added and dissolved under ultrasound until saturation. […] The concentration (mg/mL) and purity […] of dissolved PM raw materials were detected by HPLC, and then, whether there was drug precipitation was observed using a clarity detector after being stored in a refrigerator at 4° C. in dark for one day.
Where a name gives a salt, the structure may show the parent alone.
readout kind: solubility thermodynamic (µg/mL)
Answer in µg/mL, number only, no unit symbol.

Q: // lookup solubility thermodynamic for CN(Cc1nc2c(N3CCOCC3)nc(-c3ccc(N)cc3)nc2n1C)c1ncc(C(=O)NO)cn1 [API, purinostat mesylate]
Result: 370
